Cited source for all entries: PubChem BioAssay (Tox21)

- target.desc: Androgen receptor (Homo sapiens) (UniProt P10275)
- Sequence (P10275 whole entry, looked up): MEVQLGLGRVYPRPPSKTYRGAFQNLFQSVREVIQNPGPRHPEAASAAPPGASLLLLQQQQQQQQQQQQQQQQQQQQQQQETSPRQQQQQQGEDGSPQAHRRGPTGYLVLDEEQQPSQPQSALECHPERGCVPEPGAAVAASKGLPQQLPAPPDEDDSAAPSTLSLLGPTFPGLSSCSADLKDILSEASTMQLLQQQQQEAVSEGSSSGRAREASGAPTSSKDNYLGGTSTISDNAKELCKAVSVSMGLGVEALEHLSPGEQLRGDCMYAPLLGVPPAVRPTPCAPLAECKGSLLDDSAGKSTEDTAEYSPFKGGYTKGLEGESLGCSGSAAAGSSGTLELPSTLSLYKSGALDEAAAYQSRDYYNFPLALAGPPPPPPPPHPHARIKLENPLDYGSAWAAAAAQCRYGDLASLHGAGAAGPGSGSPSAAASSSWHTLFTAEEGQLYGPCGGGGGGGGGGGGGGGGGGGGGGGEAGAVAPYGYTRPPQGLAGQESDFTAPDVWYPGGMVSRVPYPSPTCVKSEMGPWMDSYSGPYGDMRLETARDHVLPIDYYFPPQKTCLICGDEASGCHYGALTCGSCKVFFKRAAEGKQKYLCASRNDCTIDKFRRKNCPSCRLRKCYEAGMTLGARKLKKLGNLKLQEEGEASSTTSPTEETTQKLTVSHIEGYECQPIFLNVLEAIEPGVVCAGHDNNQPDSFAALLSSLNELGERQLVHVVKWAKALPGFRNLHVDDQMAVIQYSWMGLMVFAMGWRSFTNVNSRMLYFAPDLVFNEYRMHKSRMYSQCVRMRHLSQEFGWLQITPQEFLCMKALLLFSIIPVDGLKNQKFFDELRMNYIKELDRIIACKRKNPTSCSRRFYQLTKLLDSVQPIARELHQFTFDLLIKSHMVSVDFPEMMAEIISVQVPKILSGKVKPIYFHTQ
- protocol.description: qHTS assay to identify small molecule antagonists of the androgen receptor (AR) signaling pathway using the MDA cell line in the presence of 0.5 nM R1881 (AID 1259243); note: nearly all actives have a fitted effect of over 50% in size
- experimental.conditions: MDA-kb2 MMTV-luciferase, R1881 0.5 nM, 16 h; series mostly up to 92.4 µM
Records with an inconclusive call do not appear. The source made the active and inactive calls. Calls come from the whole dose curve; as a rule, active = well fitted inhibition curve with a large enough effect in the repeat runs; inconclusive = weak or mixed curves; inactive = no such curve, though single readings can be large or run the other way.
Labels: yes = active, no = inactive

C=CC(=O)NCNC(=O)C=C; no
COC(C)(C)CCC[C@H](C)C/C=C/C(C)=C/C(=O)OC(C)C; no
C=CCOC(C)=O; yes
C[N+](C)(C)CCCl; no
O=S1OC[C@@H]2[C@H](CO1)[C@]1(Cl)C(Cl)=C(Cl)[C@@]2(Cl)C1(Cl)Cl (stereo not given in full); yes
CC1CC(CC2CCC(N)C(C)C2)CCC1N (stereo not given); no
Brc1ccccc1; no
CC1Sc2c(C(=O)O)c(=O)c3cc(F)c(N4CCNCC4)cc3n21 (stereo not given); no
CO/N=C(/C(=O)OC)c1ccccc1COc1ccccc1C; yes
CS/C(C)=N/OC(=O)N(C)SN(C)C(=O)O/N=C(\C)SC; no
C/C(=C\c1ccccc1)[N+](=O)[O-]; yes
COc1ccc(-c2ccccc2)cc1NNC(=O)OC(C)C; yes
O=[N+]([O-])C(Br)(CO)CO; no
S=C=NCc1ccccc1; yes
CCO[C@H]1O[C@@H]2OC3(C)CC[C@H]4[C@H](C)CC[C@@H]([C@H]1C)[C@@]24OO3; yes
CCCCC(O)(Cn1cncn1)c1ccc(Cl)cc1Cl (stereo not given); yes
C[C@@H]1CC[C@H]2[C@@H](C)C(=O)O[C@@H]3O[C@@]4(C)CC[C@@H]1[C@]32OO4; no
Sc1ccccc1Cl; no
CCOP(=S)(OCC)Oc1nc(Cl)c(Cl)cc1Cl; yes
N#Cc1cc(I)c(O)c(I)c1; yes

###

- target.desc: Progesterone receptor (Homo sapiens) (UniProt P06401)
- Sequence (P06401 whole entry, looked up): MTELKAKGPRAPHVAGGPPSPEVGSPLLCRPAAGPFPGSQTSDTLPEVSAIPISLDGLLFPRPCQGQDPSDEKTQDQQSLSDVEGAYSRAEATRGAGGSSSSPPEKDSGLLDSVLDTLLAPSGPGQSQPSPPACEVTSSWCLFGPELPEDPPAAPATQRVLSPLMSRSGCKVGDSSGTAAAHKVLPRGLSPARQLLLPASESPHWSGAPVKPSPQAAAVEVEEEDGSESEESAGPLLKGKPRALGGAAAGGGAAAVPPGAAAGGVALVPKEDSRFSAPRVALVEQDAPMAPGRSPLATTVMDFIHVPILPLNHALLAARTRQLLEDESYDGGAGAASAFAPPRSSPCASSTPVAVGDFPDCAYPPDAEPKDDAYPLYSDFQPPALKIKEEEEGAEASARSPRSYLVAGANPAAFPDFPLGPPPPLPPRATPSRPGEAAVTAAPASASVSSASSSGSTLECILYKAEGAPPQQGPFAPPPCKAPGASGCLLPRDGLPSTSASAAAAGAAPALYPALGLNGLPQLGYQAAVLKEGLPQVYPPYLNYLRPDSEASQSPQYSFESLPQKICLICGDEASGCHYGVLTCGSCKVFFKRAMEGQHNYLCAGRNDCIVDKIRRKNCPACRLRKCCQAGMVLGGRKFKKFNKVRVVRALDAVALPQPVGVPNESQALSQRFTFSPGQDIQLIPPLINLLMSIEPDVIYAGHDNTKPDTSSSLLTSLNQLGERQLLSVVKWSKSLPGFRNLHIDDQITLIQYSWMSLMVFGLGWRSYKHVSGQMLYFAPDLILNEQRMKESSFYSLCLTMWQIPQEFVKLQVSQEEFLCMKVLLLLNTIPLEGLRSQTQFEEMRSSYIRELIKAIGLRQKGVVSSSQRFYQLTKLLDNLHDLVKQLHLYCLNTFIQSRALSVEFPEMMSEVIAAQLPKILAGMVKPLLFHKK
- protocol.description: qHTS assay to identify small molecule antagonists of the progesterone receptor (PR) signaling pathway (AID 1346795)
- experimental.conditions: PR-UAS-bla HEK293T, beta-lactamase FRET ratio, 16 h; series mostly up to 92.4 µM
Results filed as inconclusive are left out. Activity calls are given as the source filed them. Calls follow the shape of the dose curve; as a rule, active = well fitted inhibition curve with a large enough effect in the signal ratio in the repeat runs (not every such curve was filed as active); inconclusive = weak or mixed curves; inactive = flat fitted curve, though single readings scatter; the % refers to the signal ratio.
Labels: active, inactive

CN1C[C@H](CNC(=O)OCc2ccccc2)C[C@@H]2c3cccc4c3c(cn4C)C[C@H]21; inactive
CCOP(O)OCC; inactive
CCBr; inactive
Sc1ccccc1Cl; inactive
O=C(O)C1(c2ccc3c(c2)OC[C@H](Cc2ccc(-c4ccccc4)cc2)[C@H]3O)CCCC1; active
N#CCc1ccccc1; inactive
COP(=O)(OC)O/C(=C/Cl)c1cc(Cl)c(Cl)cc1Cl; active

###

- protocol.description: qHTS assay to identify small molecule that activate the aryl hydrocarbon receptor (AhR) signaling pathway - cell viability counter screen (AID 743086); note: nearly all actives have a fitted effect of over 45% in size
- experimental.conditions: HepG2-AhR-luc viability, CellTiter-Fluor, 24 h; series mostly up to 70.3 µM
Results filed as inconclusive are left out. Calls of active or inactive are those of the source. Calls come from the whole dose curve; as a rule, active = well fitted cell-killing curve with a large enough effect in the repeat runs; inconclusive = weak or mixed curves, or effect the other way; inactive = flat fitted curve, though single readings scatter.
Classes used: active, inactive

C=CCCl; inactive
CC(C)N(CCC(C(N)=O)(c1ccccc1)c1ccccn1)C(C)C (stereo not drawn); inactive
CC(Cl)Cl; inactive
Nc1ccc(N=Nc2ccc(-c3ccc(N=Nc4c(S(=O)(=O)O)cc5cc(S(=O)(=O)O)c(N=Nc6ccccc6)c(O)c5c4N)cc3)cc2)c(N)c1; active
CC(C)(Cl)[N+](=O)[O-]; inactive
CCCCN(N=O)C(=N)N[N+](=O)[O-]; inactive
Cc1ccc(-c2c(Cl)nc(C#N)n2S(=O)(=O)N(C)C)cc1; inactive
CC(C)(CCl)C(=O)Cl; inactive

###

- protocol.description: qHTS assay for small molecule disruptors of the mitochondrial membrane potential (AID 720635)
- experimental.conditions: HepG2 mitochondrial membrane potential, Mito-MPS dye ratio; series mostly up to 83.2 µM
Results filed as inconclusive are left out. Activity calls are given as the source filed them. Calls follow the shape of the dose curve; as a rule, active = well fitted inhibition curve with a large enough effect in the signal ratio in the repeat runs; inconclusive = weak or mixed curves, or effect the other way; inactive = flat fitted curve, though single readings scatter; the % refers to the signal ratio.
Possible outcomes: active, inactive

O=[N+]([O-])C(Br)(CO)CO; inactive
C=CCN1CC[C@]23c4c5ccc(O)c4O[C@H]2C(=O)CC[C@@]3(O)[C@H]1C5; inactive
CO/C=C(/C(=O)OC)c1ccccc1COc1cccc(C(F)(F)F)n1; active
c1ccc(C2CC2)c(OCC2=NCCN2)c1; inactive
Nc1nc(=S)[nH][nH]1; inactive
CCn1cc[n+](C)c1; inactive
O=C=Nc1ccc(Cl)cc1; active
Cn1sc(Cl)cc1=O; inactive
CC(c1ccc(O)cc1)(c1ccc(O)cc1)c1ccc(O)cc1; active
C=CC(=O)OCC(C)O (centres undefined); inactive
Clc1cc(Cl)c(Cl)c(Cl)c1; inactive
COc1nn(C(=O)NS(=O)(=O)c2ccccc2OC(F)(F)F)c(=O)n1C; inactive
C=CC(C)=O; inactive
Oc1ccc(Cl)c(Cl)c1Cl; active
COP(=S)(Oc1cc(Cl)c(Br)cc1Cl)c1ccccc1 (centres undefined); active
S=C=NCc1ccccc1; active
O=C(OC1CCCCC1)c1ccccc1C(=O)OC1CCCCC1; active
CCOP(=O)(OCC)Oc1ccc([N+](=O)[O-])cc1; inactive
CCOc1nc(F)cc2nc(S(=O)(=O)Nc3c(Cl)cccc3Cl)nn12; inactive
CC(=O)NC1CCSC1=O (centres undefined); inactive
O=C(C(Cl)(Cl)Cl)C(Cl)(Cl)Cl; inactive
OC(c1ccc(Cl)cc1)(c1ccc(Cl)cc1)c1cccnc1; active
c1ccc(CN2CCNCC2)cc1; inactive
Cc1cc(=O)[nH]o1; inactive
IC(I)=C(I)I; active
Clc1cccc2ccccc12; inactive
Cn1cc[n+](C)c1 (tested in a mixture with another compound); inactive
Cc1c(F)c(F)c(COC(=O)C2C(/C=C(\Cl)C(F)(F)F)C2(C)C)c(F)c1F (centres undefined); active
COC1=CC(=O)O[C@@H](CCc2ccccc2)C1; inactive

###

- protocol.description: Caspase-3/7 induction in HepG2 cells by small molecules, qHTS assay (AID 1346978); note: % is set by controls: 0 for no effect and ±100 for the full control effect; nearly all actives have a fitted effect of over 15% in size
- experimental.conditions: HepG2 caspase-3/7 activation, Caspase-Glo luminescence, 17 h; series mostly up to 92.4 µM
Results filed as inconclusive are left out. Activity calls are given as the source filed them. The call rests on the fitted dose curve; in most records, active means well fitted activation curve with a large enough effect in the repeat runs; inconclusive means weak or mixed curves; inactive means flat fitted curve, though single readings scatter.
property.label: caspase activation

CN1C[C@H](CNC(=O)OCc2ccccc2)C[C@@H]2c3cccc4c3c(cn4C)C[C@H]21; inactive
CCC(COC(=O)c1cc(OC)c(OC)c(OC)c1)(c1ccccc1)N(C)C (stereo not drawn); inactive
CC(C)N(C(=O)COc1nnc(C(F)(F)F)s1)c1ccc(F)cc1; inactive
Cc1ccc(N)cc1C; inactive
O=C(Nc1ccccc1)Nc1cnns1; inactive
c1cc2ccc3cccc4ccc(c1)c2c34; inactive
COc1cc(Cl)c(OC)cc1Cl; inactive
N#CCc1ccccc1; inactive
II; inactive
CO[C@@H]1[C@H](OC(=O)NC(=O)CCl)CC[C@]2(CO2)[C@H]1[C@@]1(C)O[C@@H]1CC=C(C)C; 1.54% [at 19 µM] (inactive)
C=CCC1([C@H](C)CCC)C(=O)NC(=O)NC1=O; inactive
Clc1cc(Cl)c(Cl)c(Cl)c1; inactive
CS/C(C)=N/OC(=O)N(C)SN(C)C(=O)O/N=C(\C)SC; inactive

###

- protocol.description: A CellTox Green Cytotoxicity Assay to monitor cytotoxicity in HepG2 cells - 24 hour (AID 1224878); note: nearly all actives have a fitted effect of over 45% in size; for Cytotoxicity: % is set by controls: 0 for no effect and ±100 for the full control effect
- experimental.conditions: CellTox Green fluorescence; series mostly up to 76.8 µM
Inconclusive results are not listed. Active and inactive are the calls of the source. Calls follow the shape of the dose curve; as a rule, active = well fitted activation curve with a large enough effect in the repeat runs; inconclusive = weak or mixed curves; inactive = flat fitted curve, though single readings scatter.
Outcome codes: active, inactive

C=CC(=O)OCCCCO; inactive
O=S(=O)(Cl)c1ccccc1; inactive
ClCC(Br)CBr (centres undefined); inactive
Cc1c(F)c(F)c(COC(=O)C2C(/C=C(\Cl)C(F)(F)F)C2(C)C)c(F)c1F (centres undefined); inactive
NNC(=O)c1cccnc1; inactive
CCn1cc[n+](C)c1; inactive
CC(C)(C)c1cc([N+](=O)[O-])cc([N+](=O)[O-])c1O; inactive
C=CC(=O)OC; inactive
COc1nn(C(=O)NS(=O)(=O)c2ccccc2OC(F)(F)F)c(=O)n1C; active
C/C=C/C=O; inactive
Clc1cccc2ccccc12; inactive
CCCN(CCC)c1c([N+](=O)[O-])cc(S(C)(=O)=O)cc1[N+](=O)[O-]; inactive
BrCC(Br)C1CCC(Br)C(Br)C1 (centres undefined); inactive
CCOP(=S)(OCC)SCSCC; inactive

###

- protocol.description: qHTS assay to identify small molecule agonists of the estrogen receptor alpha (ER-alpha) signaling pathway in the presence of an antagonist - cell viability counter screen (AID 1259386);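 note: cells exposed to compounds for 22 h at 37 °C before the viability read; nearly all actives have a fitted effect of over 30% in size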
- experimental.conditions: VM7Luc4E2 viability, CellTiter-Fluor fluorescence, 22 h; series mostly up to 92.4 µM
Results filed as inconclusive are left out. Activity calls are given as the source filed them. The call rests on the fitted dose curve; in most records, active means well fitted cell-killing curve with a large enough effect in the repeat runs; inconclusive means weak or mixed curves, or effect the other way; inactive means no such curve, though single readings can be large or run the other way.
Outcome codes: active, inactive

CC1C(=O)C[C@]2(C(C)C)C[C@H]12 (stereo not given in full); inactive
COC(C)(C)CCC[C@H](C)C/C=C/C(C)=C/C(=O)OC(C)C; inactive
C#CCOC(C(=O)OCCN(C)C)(c1ccccc1)c1ccccc1; inactive
N#C/C(N)=C(/N)C#N; inactive
O=C(CBr)c1ccccc1; inactive
CCOP(=O)(OCC)O/C(=C/Cl)c1ccc(Cl)cc1Cl; inactive
CCCCN=C=O; inactive
O=C1C(=O)c2cccc3cccc1c23; inactive
C=CCC1([C@H](C)CCC)C(=O)NC(=O)NC1=O; inactive
N#Cc1ccc(Cl)cc1; inactive
CC(C)(CCl)C(=O)Cl; inactive
O=C(CBr)OCc1ccccc1; inactive
CC(=O)[C@H]1CC[C@H]2[C@@H]3CC[C@H]4C[C@](C)(O)CC[C@]4(C)[C@H]3CC[C@]12C; inactive
Clc1cc(C(Cl)(Cl)Cl)cnc1Cl; inactive
O=C1c2ccccc2C(=O)C1C(=O)C(c1ccccc1)c1ccccc1; inactive
CCCCCCCCCC(=O)O[C@H]1CC[C@H]2[C@@H]3CCC4=CC(=O)CC[C@@H]4[C@H]3CC[C@]12C; inactive
ClC=C(Cl)Cl; inactive
C=COC(C)=O; inactive
O=S(=O)(O)C(F)(F)C(F)(F)C(F)(F)C(F)(F)F; inactive
O=[N+]([O-])c1ccc(F)c([N+](=O)[O-])c1; active
O=C(C(Cl)(Cl)Cl)C(Cl)(Cl)Cl; inactive
COc1cc(Cl)c(OC)cc1Cl; inactive
CC(c1ccc(O)cc1)(c1ccc(O)cc1)c1ccc(O)cc1; inactive
CCCCCCC#N; inactive
CCCN(CCC)c1c([N+](=O)[O-])cc(S(C)(=O)=O)cc1[N+](=O)[O-]; inactive
C=CC(=O)OCCCCO; inactive
Nc1nc(N)nc(N)n1; inactive
CCCC(Cn1cncn1)c1ccc(Cl)cc1Cl (stereo not given); inactive
CCN(C)N=O; inactive
CCOS(C)(=O)=O; inactive
CCOP(=S)(OCC)SCSCC; inactive
C/C=C/C=O; inactive
CC1(C)CCC(Cc2ccc(Cl)cc2)C1(O)Cn1cncn1 (stereo not given); inactive
O=C(NC(=O)c1c(F)cccc1F)Nc1ccc(OC(F)(F)C(F)OC(F)(F)F)c(Cl)c1 (stereo not given); inactive
OCCCBr; inactive
BrCCCCBr; inactive
CC(Cl)Cl; inactive
O=C(O)COc1ccc(Cl)cc1; inactive
NC(=O)C(Cl)(Cl)Cl; inactive
CCOP(=S)(OCC)Oc1cc(Cl)c(Br)cc1Cl; inactive
O=C(N[C@H](c1ccccc1)[C@@H]1CN2CCC1CC2)c1c(Cl)ccc(C(F)(F)F)c1Cl; inactive
C=CC(=O)OCC(C)C; inactive
CCCCC(O)(Cn1cncn1)c1ccc(Cl)cc1Cl (stereo not given); inactive
CCBr; inactive
c1ccoc1; inactive
CNC(C)Cc1ccccc1OC (stereo not given); inactive
O=C(O)c1ccccc1C(=O)Nc1cccc2ccccc12; inactive
CCC(Cl)CCl (stereo not given); inactive
ClCc1cccc(Cl)c1; inactive
CC(C)(Cl)[N+](=O)[O-]; inactive
CC(=O)c1cc2c(cc1C)C(C)(C)C(C)CC2(C)C (stereo not given); inactive
C=CCCl; inactive
CCOc1ccc(C(C)(C)COCc2cccc(Oc3ccccc3)c2)cc1; inactive
CO/C=C(/C(=O)OC)c1ccccc1COc1cccc(C(F)(F)F)n1; active
Cc1c(F)c(F)c(COC(=O)C2C(/C=C(\Cl)C(F)(F)F)C2(C)C)c(F)c1F (stereo not given); inactive
CCCCNP(N)(N)=S; inactive
N#CCC#N; inactive
Clc1cccc(SC2CCNCC2)n1; inactive
C=CCOC(C)=O; inactive
COCC(C)N(C(=O)CCl)c1c(C)csc1C (stereo not given); inactive
